Values compiled from patent US20250066335A1.

Study Target: GPR84 (Homo sapiens, UniProt Q9NQS5)
Construct: expressed in transfected cells; host or cells: HTLA cells (HEK293 line stably expressing a tTA-dependent luciferase reporter and a β-arrestin2-TEV fusion gene), transiently transfected with PEI
Sequence (Q9NQS5 whole entry, the tested form may be a part): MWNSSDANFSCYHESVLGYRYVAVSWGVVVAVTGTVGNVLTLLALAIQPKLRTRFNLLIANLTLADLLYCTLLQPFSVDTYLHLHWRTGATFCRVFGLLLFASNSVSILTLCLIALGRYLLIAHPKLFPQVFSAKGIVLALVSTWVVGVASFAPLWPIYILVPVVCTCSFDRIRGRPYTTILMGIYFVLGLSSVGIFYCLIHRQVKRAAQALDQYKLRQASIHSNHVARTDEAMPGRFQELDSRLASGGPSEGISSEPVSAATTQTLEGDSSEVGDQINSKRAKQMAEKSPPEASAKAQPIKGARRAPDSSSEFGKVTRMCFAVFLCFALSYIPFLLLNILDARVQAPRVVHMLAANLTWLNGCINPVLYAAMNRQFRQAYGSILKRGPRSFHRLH
Test Protocol: PRESTO-Tango β-arrestin2 recruitment assay, GPR84 antagonistic activity
Type: cell-based
Condition Notes: antagonist activity in the Presto-TANGO assay; inhibition of the response from the agonist ZQ-16 (100 nM); HTLA cells
Quantity Kind: pIC50
# pIC50 is unitless: minus log10 of the molar concentration; print number only

For record `CCc1c(O)cc(OC[C@@H]2COCCO2)nc1CCc1ccc(OC)c(C#N)c1` the listed pIC50 is 8.81

For record CCOc1ccc(CCc2nc(OCC3COCCO3)cc(O)c2CC)cn1 (stereo not drawn) the listed pIC50 is 9.30

For record CCCc1ccc(CCc2nc(OCC3CCCCO3)cc(O)c2/C=C/C(=O)OCC)cc1 (stereo not drawn) the listed pIC50 is 7.66
